TARGET ENTITY: Pa AmpC (Pseudomonas aeruginosa, UniProt P24735)
Sequence (P24735 27-397): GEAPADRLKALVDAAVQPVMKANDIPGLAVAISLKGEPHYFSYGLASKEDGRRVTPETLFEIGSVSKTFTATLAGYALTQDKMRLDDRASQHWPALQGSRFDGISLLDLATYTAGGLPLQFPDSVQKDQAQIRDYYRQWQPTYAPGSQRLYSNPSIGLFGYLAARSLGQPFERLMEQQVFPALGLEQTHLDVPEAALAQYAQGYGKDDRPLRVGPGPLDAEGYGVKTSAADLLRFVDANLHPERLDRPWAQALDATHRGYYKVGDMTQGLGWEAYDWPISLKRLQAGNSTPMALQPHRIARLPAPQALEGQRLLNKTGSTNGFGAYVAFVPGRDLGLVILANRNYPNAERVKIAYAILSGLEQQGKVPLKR
MEASUREMENT DESCRIPTION: Ki, nitrocefin cleavage by purified enzyme, Pa AmpC
MEASUREMENT PARAMETERS: nitrocefin reporter substrate; read-out: Ki (Pa AmpC, NCF)
pKi: −log10 of the molar value.
Reported pKi by item:

Example entries begin here.
| COMPOUND | pKi |
| --- | --- |
| CSCC(=O)N[C@H]1Cc2cc(F)c(F)c(C(=O)O)c2OB1O | < 8.00 |
| O=C(CSC(F)F)N[C@H]1Cc2ccc(F)c(C(=O)O)c2OB1O | < 8.00 |
| O=C(Cc1cccs1)N[C@H]1Cc2ccc(F)c(C(=O)O)c2OB1O | 8.00 to 9.00 |
| O=CN[C@H]1Cc2ccc(F)c(C(=O)O)c2OB1O | < 8.00 |
| COc1ccc2c(c1C(=O)O)OB(O)[C@@H](NC(=O)Cc1cccs1)C2 | 8.00 to 9.00 |
| CS(=O)(=O)CC(=O)N[C@H]1Cc2ccc(F)c(C(=O)O)c2OB1O | < 8.00 |

Please state recorded pKi (tested on Pa AmpC (Pseudomonas aeruginosa, UniProt P24735)) of `COc1ccc2c(c1C(=O)O)OB(O)[C@@H](NC(=O)CSC(F)F)C2`
< 8.00

Please state recorded pKi (tested on Pa AmpC (Pseudomonas aeruginosa, UniProt P24735)) of O=C(O)CC(=O)N[C@H]1Cc2cccc(C(=O)O)c2OB1O [D, reference compound]
< 8.00

Please state recorded pKi (tested on Pa AmpC (Pseudomonas aeruginosa, UniProt P24735)) of `Nc1nnc(C(=O)N[C@H]2Cc3ccc(F)c(C(=O)O)c3OB2O)s1`
< 8.00
